Measured values drawn from PubChem BioAssay (NCI) for this set.

test system: PC-3 prostate; test: NCI tumour cell line growth inhibition, 48 h
Assay readout: TGI

Incoming: TGI for `CC(=O)/C(=N\N=C(N)N)c1ccccc1` ?
Outgoing: > 100 µM

Incoming: TGI for `CN(CCOc1ccc(NS(C)(=O)=O)cc1)CCc1ccc(NS(C)(=O)=O)cc1` ?
Outgoing: > 100 µM

Incoming: TGI for C[C@@H]1C[C@@H]2OC(=O)[C@]3(C)[C@H]2[C@@H](OC3(C)O)[C@]2(C)C(=O)C=C[C@@H]12 (stereo not given in full) ?
Outgoing: > 100 µM

###

# TGI per record follows
test system: SF-295 CNS; assay: NCI tumour cell line growth inhibition, 48 h

Some molecules with recorded TGI:
C/C(=N\Nc1nc2cc(F)ccc2s1)c1ccccn1	4.67 µM
C/C(=N\NC(=S)N1CCCC1)c1ccccn1	5.9 µM

Incoming: TGI for `COc1ccc(N=C(C)C(C)=Nc2ccc(OC)cc2)cc1` ?
Outgoing: > 100 µM

Incoming: TGI for C=C1C(=O)OC2C[C@@]3(C)CCCC(=C)C3CC12 (some centres undefined) ?
Outgoing: 23.6 µM

###

test system: CCRF-CEM leukemia; assay: NCI tumour cell line growth inhibition, 48 h; in the data active = GI50 below about 0.43 µM; inactive = the rest
Pick from YES for active, NO for inactive when you respond.

C=C(CN1CCc2ccccc2C1)c1ccc(CCCC(=O)Nc2ccccc2N)cc1	NO
CCOc1ccc2cc(-c3nn(CC4CCN(C)CC4)c4ncnc(N)c34)ccc2c1	NO
C/C(=N\NC(=S)N1CCCC1)c1ccccn1	YES
Cn1cc(-c2csc(-c3ccc(Cl)cc3)n2)c2cccnc21	NO

Moving on to another compound below.
Incoming: Test call, this compound: COc1cccc(C2C(C#N)=C(N)Oc3cc(OCCCCCC[P+](c4ccccc4)(c4ccccc4)c4ccccc4)ccc32)c1 (stereo not given)
Outgoing: NO

###

system: NCI-H522 lung; assay: NCI tumour cell line growth inhibition, 48 h
# TGI per record follows

Some compounds with recorded TGI:
Fc1ccc(-c2ncn(C3CCNCC3)c2-c2ccnc(Oc3ccc(Cl)cc3)n2)cc1	9.34 µM
C=C1C(=O)OC2C[C@@]3(C)CCCC(=C)C3CC12 (some centres undefined)	3.65 µM
Cc1oc(N)c(S(=O)(=O)/C(C#N)=C/c2ccccc2[N+](=O)[O-])c1C	41 µM

Incoming: What value of TGI on NCI-H522 lung does `CC1=NN(c2ccccc2)C(=O)/C1=C\c1c(C)[nH]n(-c2ccccc2)c1=O` have?
Outgoing: > 100 µM

###

# TGI per record follows
tested on: NCI-H522 lung; assay: NCI tumour cell line growth inhibition, 48 h
Express it in µM; write the number only.

O=C1CC(c2cccc([N+](=O)[O-])c2)C2(C(=O)NC(=S)NC2=O)C(c2cccc([N+](=O)[O-])c2)C1 (centres undefined)	89.6
CC(=O)c1nc(-c2ccc(C[C@@H](CNC(=O)CN(C)C)NC(=O)c3ccc(OC(C)C)c(Cl)c3)cc2)cn1C	13.8
S=C(Nc1ccc(-c2nc3ccccc3s2)cc1)Nc1ccc(-c2nc3ccccc3s2)cc1	26.2

Now for a further molecule.
Incoming: TGI for OC(Cc1cccc2ccccc12)CN1CCC(c2ccccc2)CC1 (centres undefined) ?
Outgoing: 21.9

###

tested on: A549 NSCLC; test: NCI tumour cell line growth inhibition, 48 h
Assay readout: TGI (µM)
Express it in µM; write the number only.

Some compounds with recorded TGI:
C[C@]12CCC3c4ccc(O)cc4CCC3C1CC[C@@H]2NC(=O)/C=C/c1ccc(O)c(O)c1 (some centres undefined)	31.8
C=C1C(=O)O[C@@H]2C[C@@H](C)[C@@H]3C=CC(=O)[C@@]3(C)[C@@H](OC(=O)CCCC(=O)O[C@H]3[C@@H]4C(=C)C(=O)O[C@@H]4C[C@@H](C)[C@@H]4C=CC(=O)[C@]43C)[C@H]12	6.09

Incoming: What value of TGI on A549 NSCLC does `C=C(CN1CCN(c2ccccn2)CC1)c1ccc(C(=O)Nc2ccccc2N)cc1` have?
Outgoing: 37.3

###

tested on: M14 melanoma; assay: NCI tumour cell line growth inhibition, 48 h
Assay readout: TGI

CCCCS(=O)(=O)c1cc(Nc2ccc(O)c3c2C(=O)c2ccccc2C3=O)ccc1C	> 100 µM
C=C(c1ccccc1)c1cc2c(=O)[nH]ccc2n1C	> 100 µM
Cc1cc(C)c(-c2c(O)c(Br)c(-c3c(C)cc(C)c(Br)c3C)c(O)c2Br)c(C)c1Br	4.71 µM

Incoming: TGI for `CSC(=S)NCc1cn(C)c2ccccc12` ?
Outgoing: > 100 µM

Incoming: TGI for `O=C(Cc1nc2ccccc2s1)C(=O)Nc1cccc(C(F)(F)F)c1` ?
Outgoing: > 100 µM

Incoming: TGI for `CCOC(=O)c1cnc2n(c1=O)[C@H]1CCCC[C@@H]1N2` ?
Outgoing: > 100 µM

###

tested on: OVCAR-3 ovarian; assay: NCI tumour cell line growth inhibition, 48 h
# TGI per record follows

Some compounds with recorded TGI:
CCOC(=O)c1c(SC(=O)c2ccc(Cl)cc2)n(-c2ccccc2)c(=S)n(-c2ccccc2)c1=O	> 100 µM
C=CC(C)(C)/C(=C\CO[Si](C(C)C)(C(C)C)C(C)C)C(=O)N(C)c1ccccc1I	26.2 µM
CC(C)(O)c1cc(Nc2cc(Oc3cn(C4CC4)nc3C3CCOCC3)ccn2)ccn1	> 100 µM
COc1ccc(-c2cn3ccnc3c(-c3ccc(Cl)cc3)n2)cc1	71.8 µM
O=[N+]([O-])/C(Cl)=C(\NCCO)C(Cl)=C(Cl)Cl	> 100 µM

Now for a further compound.
Incoming: What value of TGI on OVCAR-3 ovarian does `COC(=O)[C@@H]1C=CCN1S(=O)(=O)c1ccc(C)cc1` have?
Outgoing: > 100 µM

###

test system: SN12C renal; assay: NCI tumour cell line growth inhibition, 48 h
Assay readout: GI50

Incoming: GI50 for `COc1ccc(C(=O)Cn2c(C(=O)c3ccc(Cl)cc3)nc(-c3ccccc3)c2-c2ccccc2)cc1` ?
Outgoing: > 100 µM

Incoming: GI50 for `CN(CCOc1ccc(NS(C)(=O)=O)cc1)CCc1ccc(NS(C)(=O)=O)cc1` ?
Outgoing: > 100 µM

Incoming: GI50 for `CC(C)(C)OC(=O)NCCCCCCCCCCCCn1c2c(c3ccccc3c1=O)C(=O)c1ccccc1-2` ?
Outgoing: > 100 µM

Incoming: GI50 for `COc1ccc(N=c2nc3sc4cc(Cl)ccc4n3c(N)c2C#N)cc1` ?
Outgoing: 15.3 µM

###

test system: SF-268 CNS; experiment: NCI tumour cell line growth inhibition, 48 h; in the data active means GI50 below about 0.43 µM; inactive means the rest
Pick from True (active), False (inactive) when you respond.

Illustrative cases are given below, each with its answer.
COc1ccc2c(c1)[n+](=O)c(/C=C/C(=O)c1cc(OC)c(OC)c(OC)c1)c(C)n2[O-]	False
COC(=O)c1c(C(=O)O)c(-c2ccccc2)c(-c2ccccc2)c(-c2ccccc2)c1-c1ccccc1	False
Cc1nc(C(=O)OCc2ccccc2)cc(OCc2ccccc2)c1C	False

Incoming: Test call, this compound: `CCCCC[C@H]1C/C=C2/C(=O)C=C[C@@H]2C/C=C\CCCC(=O)O1`
Outgoing: True

Incoming: Test call, this compound: `Cn1cc(-c2csc(-c3ccc(Cl)cc3)n2)c2cccnc21`
Outgoing: False

Incoming: Test call, this compound: `CC(C)(O)c1cc(Nc2cc(Oc3cn(C4CC4)nc3C3CCOCC3)ccn2)ccn1`
Outgoing: False

Incoming: Test call, this compound: `COC(=O)N[C@@H](C)CNc1nccc(-c2cn(C(C)C)nc2-c2cc(Cl)cc(NS(C)(=O)=O)c2F)n1`
Outgoing: False

###

tested on: SW-620 colon; test: NCI tumour cell line growth inhibition, 48 h
Assay readout: TGI

Cc1cc2ccccc2n2c1nc1ccc(O)cc12	> 10 µM
Cc1c2oc(=O)c(C#N)cc2c2ccccn12	> 100 µM
CN1C2C=CC(=O)C1C(C#N)C2 (stereo unspecified)	> 100 µM

Incoming: TGI for `CC(=O)c1nc(-c2ccc(C[C@@H](CNC(=O)CN(C)C)NC(=O)c3ccc(OC(C)C)c(Cl)c3)cc2)cn1C` ?
Outgoing: 20.4 µM

Incoming: TGI for `Fc1ccc(-c2ncn(C3CCNCC3)c2-c2ccnc(Oc3ccc(Cl)cc3)n2)cc1` ?
Outgoing: 7.3 µM

Incoming: TGI for `Cc1cccc(C=NC23CC4CC(CC(C4)C2)C3)c1` ?
Outgoing: > 100 µM

###

test system: SF-539 CNS; test: NCI tumour cell line growth inhibition, 48 h
Assay readout: TGI

O=C(O)CCN1C(=S)CSC1=S	> 100 µM

Now for a further compound.
Incoming: What value of TGI on SF-539 CNS does `CCOC(=O)C(Cc1cc(OC)c(CC(C(=O)OCC)C(=O)OCC)cc1OC)C(=O)OCC` have?
Outgoing: > 100 µM

###

system: BT-549 breast; assay: NCI tumour cell line growth inhibition, 48 h
Class condition met: TGI at least 30 µM. Class condition not met: TGI below 30 µM.

COc1cc(N)c(Cl)cc1C(=O)N[C@@H]1CCN(CCCOc2ccc(F)cc2)C[C@@H]1OC	condition met
CC(C)(C)OC(=O)NCCCCCCCCCCCCn1c2c(c3ccccc3c1=O)C(=O)c1ccccc1-2	condition met
CN(Cc1cnc2nc(N)nc(N)c2n1)c1c(Cl)cc(C(=O)NC(CCC(=O)O)C(=O)O)cc1Cl (stereo not given)	condition met
O=C(O)c1c(CC(Cc2ccccc2)C(=O)O)ccc2c1CCC2 (stereo not given)	condition met

Incoming: Assess whether reported TGI for `O=C(CC1(O)CCCCC1)OC1CCCC1` sits at 30 µM or higher.
Outgoing: condition met

Incoming: Assess whether reported TGI for COC1CCC(OC)C(c2nc3sccn3c2/C=N/N=C(N)N)C1 (stereo not given) sits at 30 µM or higher.
Outgoing: condition met

Incoming: Assess whether reported TGI for `COc1c(NC(C)=O)c2ccccc2c2ccccc12` sits at 30 µM or higher.
Outgoing: condition met

Incoming: Assess whether reported TGI for `Nc1ccnc2c1ncn2[C@H]1C[C@H](O)[C@@H](CO)O1` sits at 30 µM or higher.
Outgoing: condition met

Incoming: Assess whether reported TGI for `CCN(CC)c1ccc(/C=N/N=C(N)N)cc1` sits at 30 µM or higher.
Outgoing: condition met

Incoming: Assess whether reported TGI for `Cc1nc(C(=O)OCc2ccccc2)cc(OCc2ccccc2)c1C` sits at 30 µM or higher.
Outgoing: condition met
